recorded endpoint: GI50

Q. Param readout = GI50; param system = HCT-15; param query = C=CCOCCCCC(C(C)=O)C(=O)OC (stereo not given) ; response: value
A. > 100 µM

Q. Look up GI50 with HCT-15 for this compound: C(=C\c1ccc2ccccc2c1Nc1ccccc1)/c1ccccc1
A. > 100 µM

Q. Notebook entry, HCT-15 assay: GI50 of O=C1c2cccc3cc([N+](=O)[O-])cc(c23)C(=O)N1NC1=NCCN1 = ?
A. > 100 µM

Q. Request - read-out GI50 | tested on HCT-15 | compound C=C(C)[C@H](O)C(O)CC(C)[C@@H]1CCC23CC12CCC1[C@@]2(C)CCC(OC(C)=O)C(C)(C)C2CC(OC2OC(COC(C)=O)C(O)C(O)C2O)[C@]13C (stereo not given in full)
A. 4.86 µM

Q. Value wanted: GI50 (HCT-15) of entry COC1OC(COC(=O)NCCCCC(=O)C(F)(F)F)C(O)C(O)C1O (stereo not given)
A. > 100 µM

Q. HCT-15 / GI50 / OC(c1cc2ccccc2[nH]1)C(O)(c1cc2ccccc2[nH]1)c1cc2ccccc2[nH]1 (stereo not given) : value?
A. 10 µM

Q. Report GI50 for CCOC(=O)N1C(=S)C(C(=O)OC)(C(=O)OC)N=C1C tested on HCT-15.
A. > 100 µM

Q. Short answer please: GI50, HCT-15, entry CN(/N=C/C=N/N(C)C1=NCCCN1)C1=NCCCN1
A. > 100 µM

Q. Reported GI50 for HCT-15, given C[C@]12[C@@H]3CC[C@H]1[C@@H](OC(=O)Nc1cc([N+](=O)[O-])cc([N+](=O)[O-])c1)C(=O)N2CC3 ?
A. > 100 µM

Q. What measured GI50 is associated with COc1cc2cccc(N)c2cc1OC on HCT-15?
A. > 100 µM
